- subject-of-test: T1, human GPCR135 (human, UniProt Q9NSD7 1-469)
- T1 sequence: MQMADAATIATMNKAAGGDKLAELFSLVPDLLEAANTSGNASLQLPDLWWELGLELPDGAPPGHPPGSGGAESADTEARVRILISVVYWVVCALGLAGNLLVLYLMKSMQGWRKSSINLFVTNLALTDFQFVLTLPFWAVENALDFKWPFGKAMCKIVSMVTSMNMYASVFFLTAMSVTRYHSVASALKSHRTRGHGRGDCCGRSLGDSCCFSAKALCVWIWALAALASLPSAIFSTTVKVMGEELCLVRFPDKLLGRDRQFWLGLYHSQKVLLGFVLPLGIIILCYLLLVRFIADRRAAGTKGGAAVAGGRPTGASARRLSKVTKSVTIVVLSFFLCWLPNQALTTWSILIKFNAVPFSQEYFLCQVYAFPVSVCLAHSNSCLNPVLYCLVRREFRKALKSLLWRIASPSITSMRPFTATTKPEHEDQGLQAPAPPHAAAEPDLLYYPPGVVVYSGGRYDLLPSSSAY
- assay-overview: cell-based or functional assay
Ends that are not written are not given here.
measured-parameter: EC50, inhibition of forskolin stimulated β-galactosidase expression

Example binders with recorded EC50, inhibition of forskolin stimulated β-galactosidase expression:
## Input // query EC50, inhibition of forskolin stimulated β-galactosidase expression value for entry RAAPYGVRLCGREFIRAVIFTCGGSRWNPARYCCLSGCTQQDLLTLC (ligand, disulfide (positions not given here); also: two chains (relaxin-3 B-chain, INSL3 A-chain), disulfide-linked, chain break not marked, Mature two-chain peptide: human relaxin-3 B-chain disulfide-linked to human INSL3 A-chain; FLAG tag removed) [human relaxin-3/INSL3 chimeric polypeptide (R3/I3), mature]
## Output 2.2 nM

## Input Same lookup for RAAPYGVRLCGREFIRAVIFTCGGSRWQDLQTLCCTDGCSMTDLSALC (ligand, disulfide (positions not given here); also: two chains (relaxin-3 B-chain, INSL5 A-chain), disulfide-linked, chain break not marked, Mature two-chain peptide: human relaxin-3 B-chain disulfide-linked to human INSL5 A-chain; FLAG tag removed; the tracer is kept under this same molecule; also called R3/5; I5/R3) [human relaxin-3/INSL5 chimeric polypeptide (R3/I5), mature] , please.
## Output 0.45 nM

***
## Input // query EC50, inhibition of forskolin stimulated β-galactosidase expression value for entry RAAPYGVRLCGREFIRAVIFTCGGSRWFDPFCCEVICDDGTSVKLC (ligand, disulfide (positions not given here); also: two chains (relaxin-3 B-chain, INSL4 A-chain), disulfide-linked, chain break not marked, Mature two-chain peptide: human relaxin-3 B-chain disulfide-linked to human INSL4 A-chain; FLAG tag removed) [human relaxin-3/INSL4 chimeric polypeptide (R3/I4), mature]
## Output > 1000 nM
